Ref: paper PMC9503608

measured-property: melting point

C(=C1Sc2ccccc2N1Cc1ccccc1)c1sc2ccccc2[n+]1Cc1ccccc1.[I-]	249 to 250 °C
CCCCCCCCCCN1C(=CC=C2CCCC(C=Cc3[se]c4ccccc4[n+]3CCCCCCCCCC)=C2Cl)[Se]c2ccccc21.[I-]	221 to 224 °C
CCN1C(=CC=Cc2[se]c3ccccc3[n+]2CC)[Se]c2ccccc21.[I-]	272 to 273 °C (dec.)
CCCCCN1C(=CC=C2CCCC(C=Cc3sc4ccccc4[n+]3CCCCC)=C2Cl)Sc2ccccc21.[I-]	227 to 228 °C

Lab note: next compound to report on.
input: I'd like to know its melting point. The compound in question is CCCN1C=CC(=Cc2cc[n+](CCC)c3ccccc23)c2ccccc21.[I-]
output: 229 to 231 °C
